Provenance of the data: the Kinase Knowledgebase extract (Sharma et al. 2016)

Please respond with reported IC50 for every item in the list.
target: UniProt:P42336; test: Cell-Based Assay; conditions: rat-1
Sequence (P42336 whole entry, looked up): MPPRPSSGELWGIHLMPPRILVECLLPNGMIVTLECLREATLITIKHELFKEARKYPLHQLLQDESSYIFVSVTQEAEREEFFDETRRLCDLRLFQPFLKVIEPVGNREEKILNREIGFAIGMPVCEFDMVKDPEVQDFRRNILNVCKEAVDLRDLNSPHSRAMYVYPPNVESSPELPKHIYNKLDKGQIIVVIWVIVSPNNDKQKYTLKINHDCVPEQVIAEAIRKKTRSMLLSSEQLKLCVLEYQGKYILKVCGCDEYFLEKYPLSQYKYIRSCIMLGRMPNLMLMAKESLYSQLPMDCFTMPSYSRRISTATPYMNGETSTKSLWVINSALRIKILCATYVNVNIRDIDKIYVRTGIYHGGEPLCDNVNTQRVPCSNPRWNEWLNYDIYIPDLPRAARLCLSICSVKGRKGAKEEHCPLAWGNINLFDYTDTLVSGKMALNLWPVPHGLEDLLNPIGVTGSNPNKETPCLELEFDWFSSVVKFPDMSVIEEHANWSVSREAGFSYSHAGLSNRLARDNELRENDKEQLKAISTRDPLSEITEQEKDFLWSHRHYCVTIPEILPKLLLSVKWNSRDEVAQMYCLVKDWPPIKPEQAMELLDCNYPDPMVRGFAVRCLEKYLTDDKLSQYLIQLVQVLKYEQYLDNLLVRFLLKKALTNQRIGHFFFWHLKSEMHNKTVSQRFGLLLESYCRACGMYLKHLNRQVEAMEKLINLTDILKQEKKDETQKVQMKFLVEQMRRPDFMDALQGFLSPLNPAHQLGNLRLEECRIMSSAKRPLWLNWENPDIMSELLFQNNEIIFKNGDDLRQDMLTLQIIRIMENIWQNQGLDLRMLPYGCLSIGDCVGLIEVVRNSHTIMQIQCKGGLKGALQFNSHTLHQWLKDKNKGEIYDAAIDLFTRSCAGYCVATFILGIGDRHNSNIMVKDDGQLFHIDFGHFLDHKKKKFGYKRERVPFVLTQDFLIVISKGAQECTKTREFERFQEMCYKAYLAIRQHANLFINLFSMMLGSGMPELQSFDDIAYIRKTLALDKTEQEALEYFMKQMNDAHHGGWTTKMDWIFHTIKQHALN

# GIVEN_SMILES, RESULT
data = [
    ("N#Cc1c(N)ncnc1N1CCC[C@H]1c1nc2cccc(Cl)c2c(=O)n1N1CCCCC1", "> 10 µM"),
    ("N#Cc1cnc(N)nc1N1C[C@@H](O)C[C@H]1c1nc2cccc(C(F)(F)F)c2c(=O)n1-c1ccccc1", "> 10 µM"),
    ("Nc1nc(N2C[C@@H](F)C[C@H]2c2nc3cccc(C(F)(F)F)c3c(=O)n2-c2cccnc2)c2nc[nH]c2n1", "> 10 µM"),
    ("Cc1nc(N)nc(N2CCC[C@H]2c2nc3cccc(F)c3c(=O)n2-c2ccccc2)c1C#N", "2.87 µM"),
    ("Cn1cnc2c(N3CCC[C@H]3c3nc4cccc(Cl)c4c(=O)n3C3CC3)nc(N)nc21", "5.46 µM"),
]

--- query ---
Request: Look up IC50 with UniProt:P42336 for this molecule: `O=c1c2c(F)cc(F)cc2nc([C@@H]2CCCN2c2ncnc3[nH]cnc23)n1-c1ccccc1`
Result: > 10 µM

* * *

target: PIK3CA (human); assay: Cell-Based Assay; conditions: rat-1
RESULT_TYPE: IC50

Use the examples below as a reference point.
# GIVEN_SMILES, EXPERIMENTAL_SYSTEM, RESULT
measured = [
    ("O=c1c2c(Cl)cccc2nc([C@@H]2CCCN2c2ncnc3[nH]cnc23)n1-c1cccnc1", "PIK3CA (human)", "> 10 µM"),
    ("N#Cc1c(N)ncnc1N1CCC[C@H]1c1nc2cccc(C(F)(F)F)c2c(=O)n1-c1ccccc1", "PIK3CA (human)", "> 10 µM"),
]

--- query ---
Request: Look up IC50 with PIK3CA (human) for this compound: `N#Cc1c(N)ncnc1N1CCC[C@H]1c1nc2cccc(Cl)c2c(=O)n1C1CCCCC1`
Result: > 10 µM

* * *

molecular target: PIK3CG (human) (UniProt P48736); test: Enzyme Assay
Sequence (P48736 whole entry, looked up): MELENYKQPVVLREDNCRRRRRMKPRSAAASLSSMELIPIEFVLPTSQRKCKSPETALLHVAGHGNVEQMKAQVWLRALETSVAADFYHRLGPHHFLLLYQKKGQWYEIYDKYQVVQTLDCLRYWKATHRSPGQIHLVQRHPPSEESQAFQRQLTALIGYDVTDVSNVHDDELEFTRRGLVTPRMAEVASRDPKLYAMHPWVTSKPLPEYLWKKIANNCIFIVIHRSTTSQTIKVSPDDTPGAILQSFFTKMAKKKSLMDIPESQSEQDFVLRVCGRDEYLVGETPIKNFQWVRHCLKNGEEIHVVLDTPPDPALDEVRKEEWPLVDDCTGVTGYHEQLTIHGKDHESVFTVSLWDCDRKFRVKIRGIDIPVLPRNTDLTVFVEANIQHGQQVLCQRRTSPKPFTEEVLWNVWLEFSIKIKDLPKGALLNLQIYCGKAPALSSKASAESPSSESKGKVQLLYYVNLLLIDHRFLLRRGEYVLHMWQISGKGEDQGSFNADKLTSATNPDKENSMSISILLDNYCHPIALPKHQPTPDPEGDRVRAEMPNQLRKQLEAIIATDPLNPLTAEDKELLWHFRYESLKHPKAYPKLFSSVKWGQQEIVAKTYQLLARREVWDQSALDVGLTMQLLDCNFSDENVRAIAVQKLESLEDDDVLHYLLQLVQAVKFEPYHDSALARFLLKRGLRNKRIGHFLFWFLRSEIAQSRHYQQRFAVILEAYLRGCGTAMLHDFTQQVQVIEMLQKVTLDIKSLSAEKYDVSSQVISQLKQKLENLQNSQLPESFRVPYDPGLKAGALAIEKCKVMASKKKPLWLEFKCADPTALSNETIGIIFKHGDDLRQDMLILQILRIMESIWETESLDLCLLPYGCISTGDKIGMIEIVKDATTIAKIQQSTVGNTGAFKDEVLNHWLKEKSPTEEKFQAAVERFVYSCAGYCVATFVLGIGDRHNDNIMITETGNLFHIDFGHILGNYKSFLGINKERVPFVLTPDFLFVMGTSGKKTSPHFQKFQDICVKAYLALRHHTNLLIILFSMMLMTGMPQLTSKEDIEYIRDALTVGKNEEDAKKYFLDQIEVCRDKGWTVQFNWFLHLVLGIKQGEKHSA
RESULT_TYPE: IC50 (nM)
One number for each entry, in nM.

Give IC50 for each of the items listed below.
1. CC1(n2c([C@@H]3CCCN3c3ncnc4[nH]cnc34)nc3cccc(Cl)c3c2=O)CC1
2. O=c1c2c(C(F)(F)F)cccc2nc([C@@H]2C[C@H](F)CN2c2ncnc3[nH]cnc23)n1-c1ccccc1

Result:
1: 490; 2: 68

Request: For `CN(C)n1c([C@@H]2CCCN2c2ncnc3[nH]cnc23)nc2cccc(Cl)c2c1=O` , what is its reported IC50?
Result: 320

* * *

Please respond with reported IC50 for every item in the list.
molecular target: PIK3CD (Human) (UniProt O00329); test: Enzyme Assay
Sequence (O00329 whole entry, looked up): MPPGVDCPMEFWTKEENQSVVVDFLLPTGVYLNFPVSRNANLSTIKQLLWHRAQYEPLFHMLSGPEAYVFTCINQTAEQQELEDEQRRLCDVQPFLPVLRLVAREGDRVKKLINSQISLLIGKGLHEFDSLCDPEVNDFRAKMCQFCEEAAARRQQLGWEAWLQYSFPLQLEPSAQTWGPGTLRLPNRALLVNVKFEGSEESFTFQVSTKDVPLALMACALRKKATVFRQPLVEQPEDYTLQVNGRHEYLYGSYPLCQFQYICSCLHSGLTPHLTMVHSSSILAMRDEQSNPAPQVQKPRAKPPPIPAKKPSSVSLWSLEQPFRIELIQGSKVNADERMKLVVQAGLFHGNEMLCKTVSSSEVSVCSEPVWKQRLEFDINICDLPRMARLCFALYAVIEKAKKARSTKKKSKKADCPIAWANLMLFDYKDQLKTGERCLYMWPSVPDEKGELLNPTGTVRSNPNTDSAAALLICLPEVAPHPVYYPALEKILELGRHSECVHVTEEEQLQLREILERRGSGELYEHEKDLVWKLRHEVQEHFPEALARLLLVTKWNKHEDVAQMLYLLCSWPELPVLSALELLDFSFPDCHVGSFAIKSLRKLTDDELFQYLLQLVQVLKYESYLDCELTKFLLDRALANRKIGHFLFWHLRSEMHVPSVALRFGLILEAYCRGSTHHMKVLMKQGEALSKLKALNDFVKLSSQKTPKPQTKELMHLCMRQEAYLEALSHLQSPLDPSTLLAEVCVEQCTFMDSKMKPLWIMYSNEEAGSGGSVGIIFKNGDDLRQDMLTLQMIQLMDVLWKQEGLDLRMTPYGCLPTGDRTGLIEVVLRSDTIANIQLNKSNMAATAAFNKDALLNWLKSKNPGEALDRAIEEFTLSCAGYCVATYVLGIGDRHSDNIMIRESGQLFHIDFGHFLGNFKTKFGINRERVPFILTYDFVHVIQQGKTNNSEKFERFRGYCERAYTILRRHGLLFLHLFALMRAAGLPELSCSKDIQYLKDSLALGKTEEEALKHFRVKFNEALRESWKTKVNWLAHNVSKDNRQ
Give bare numbers, in µM.

# GIVEN_SMILES, UNITS_OF_MEASURE, IC50
data = [
    ("O=c1c2c(C(F)(F)F)cccc2nc([C@@H]2C[C@H](O)CN2c2ncnc3[nH]cnc23)n1-c1ccccc1", "µM", 0.016),
    ("CO[C@H]1C[C@@H](c2nc3cccc(C(F)(F)F)c3c(=O)n2N2CCOCC2)N(c2ncnc(N)c2C#N)C1", "µM", 0.053),
    ("O=c1c2c(Cl)cccc2nc([C@@H]2CCCN2c2ncnc3[nH]cnc23)n1C1CCCCC1", "µM", 0.012),
    ("Nc1nc(N2C[C@@H](O)C[C@H]2c2nc3cccc(C(F)(F)F)c3c(=O)n2-c2ccccc2)c2nccn2n1", "µM", 0.026),
]

Request: For `N#Cc1c(N)ncnc1N1CCC[C@H]1c1nc2cc(F)cc(F)c2c(=O)n1-c1ccccc1` , what is its reported IC50?
Result: 0.043
